Origin of values: patent US20240307374A1

Assay: pKa test, spectrophotometric method (UV-metric pKa)
Type: physicochemical
Conditions: 63.9% MeOH in water, MeOH concentration of 63.9%; read-out: psKa (apparent pKa 1), UV-metric
Assay metric: pKa

CC(=O)NCC1CCN(Cc2cc(Oc3ccc(N4CCN(CCC(=O)O)CC4)nc3)nc(-c3cc(Cl)cc(Cl)c3)c2)CC1 [Compound (I) freeform] yielded pKa of 1.27

----------
Assay: Approximate solubility at RT
Type: physicochemical
Details: Anisole, organic solvent or mixture, thermodynamic from solid, Anisole, RT; read-out: Solubility
Procedure: Four freeform isolation experiments were performed in different solvent with different acids. Solids were obtained in DCM/HCl and CHCl3/HCl system. Approximately 2 mg solids were added into a 3-mL glass vial. Solvents in the following table were then added stepwise (50-50-200-700[…] for each step) into the vials and stirred until the solids were dissolved or a total volume of 1 mL was reached. The solubility results were used to guide the solvent selection in polymorph formation.
Assay metric: solubility

CC(=O)NCC1CCN(Cc2cc(Oc3ccc(N4CCN(CCC(=O)O)CC4)nc3)nc(-c3cc(Cl)cc(Cl)c3)c2)CC1 [Freeform Type A] yielded solubility of < 2000 µg/mL
